Listed below: polymerase ribozyme fitness (log ratio) values for each entry.
B1: TPR 5TU (parent)
chain: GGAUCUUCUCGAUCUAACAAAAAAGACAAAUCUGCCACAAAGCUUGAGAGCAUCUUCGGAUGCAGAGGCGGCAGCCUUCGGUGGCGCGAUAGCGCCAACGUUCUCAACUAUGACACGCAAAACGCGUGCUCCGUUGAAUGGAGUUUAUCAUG

# Variants of: B1
# Procedure details: polymerase ribozyme fitness, log enrichment relative to wild type (log ratio); higher = more active; in vitro selection for triplet polymerase activity
Variants at the floor of the assay were thinned out.
Output: the number by itself.

Below are worked cases with known answers.
Variant id: U78A
polymerase ribozyme fitness (log ratio): -3.62
//
Variant id: C99A C114U U135G
polymerase ribozyme fitness (log ratio): -3.68
//
Variant id: U4C A12G U31G G94C A121G
polymerase ribozyme fitness (log ratio): -0.0351
//
Variant id: A21C C93U
polymerase ribozyme fitness (log ratio): -1.24
//
Variant id: U4G G88U
polymerase ribozyme fitness (log ratio): -3.2

We next turn to a different variant, shown below.
Find the recorded polymerase ribozyme fitness (log ratio) belonging to A30U G94A and report it. -3.7
